target.system: mouse ENT-1 transporter (Mus musculus)
Construct: expressed in transfected cells
Sequence (Q9JIM1 1-460): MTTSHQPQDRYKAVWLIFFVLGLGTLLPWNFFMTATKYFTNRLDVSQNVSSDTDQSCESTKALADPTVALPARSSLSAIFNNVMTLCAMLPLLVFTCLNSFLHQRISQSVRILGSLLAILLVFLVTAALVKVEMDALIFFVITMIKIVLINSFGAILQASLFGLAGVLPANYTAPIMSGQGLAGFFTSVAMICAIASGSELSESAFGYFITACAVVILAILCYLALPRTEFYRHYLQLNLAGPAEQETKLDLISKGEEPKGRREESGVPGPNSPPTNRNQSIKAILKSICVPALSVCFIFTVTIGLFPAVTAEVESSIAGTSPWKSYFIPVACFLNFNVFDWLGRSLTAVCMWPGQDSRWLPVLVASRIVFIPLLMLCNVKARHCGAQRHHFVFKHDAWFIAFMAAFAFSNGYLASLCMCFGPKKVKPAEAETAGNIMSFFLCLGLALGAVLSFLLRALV
test.description: Measure of adenosine transport activity (ENT1 adenosine uptake inhibition)
Assay type: cell-based
assay.setup: stable cells expressing mouse ENT-1, [2,8-3H]-adenosine 6 nM, 20 min
Method: To measure adenosine transport activity of ENT-1 mammalian cells, stable cells expressing the mouse ENT-1 transporter were plated on day 1 in 96-well culture plates at the density of 60,000 cells/well, in complete DMEM/F12 medium supplemented with glutamax, 10% FBS and 10 μg/ml puromycin. On day 2, the medium was aspirated and the cells were washed twice with uptake buffer (10 mM Hepes-Tris, pH 7.4 containing 150 mM NaCl, 1 mM CaCl2), 2.5 mM KCl, 2.5 mM MgSO4, 10 mM D-glucose) (UB). […]
log10 of IC50 values for the compounds below.
assay.readout: log10 of IC50 (log10 of the value in nM)

Cc1ncc(-c2ccc3c(c2)N(c2cncc(C#N)c2)C(=O)C3(C)C)cn1 : 1.85
Cc1ncc(-c2ccc3c(c2)N(c2ccc(C)[n+]([O-])n2)C(=O)C3(C)C)c[n+]1[O-] : 3.34
CC(C)c1cn(-c2ccc3c(c2)N(c2ccn(C)n2)C(=O)C3(C)C)cn1 : 3.83
Cc1ncc(-c2ccc3c(c2)N(c2cnc(Cl)nc2)C(=O)C3(C)C)cn1 : 2.66
Cc1ncc(-c2ccc3c(c2)N(c2cnc(C)nc2)C(=O)C3(C)C)cn1 : 2.24
Cc1ncc(-c2ccc3c(c2)N(c2nccc(Cl)n2)C(=O)C3(C)C)cn1 : 2.93
Cc1ccnc(N2C(=O)C(C)(C)c3ccc(-c4cnc(C)nc4)cc32)c1 : 3.58
Cc1cc(N2C(=O)C(C)(C)c3ccc(-c4cnc(C)nc4)cc32)nc(C)n1 : 2.70
